target: anti-CD28 scFv (VH - linker 1 - VL) (biotinylated (captured on neutravidin coated plates)); test: clonal phage ELISA on anti-CD28 scFv; wells pre-incubated with soluble CD28 (competitor);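 note: crude phage supernatants added to wells preloaded with blocking buffer plus soluble CD28, bound phage read with HRP-linked anti-M13 antibody, comparison wells received blocking buffer only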
Sequence (scFv, as listed by the source): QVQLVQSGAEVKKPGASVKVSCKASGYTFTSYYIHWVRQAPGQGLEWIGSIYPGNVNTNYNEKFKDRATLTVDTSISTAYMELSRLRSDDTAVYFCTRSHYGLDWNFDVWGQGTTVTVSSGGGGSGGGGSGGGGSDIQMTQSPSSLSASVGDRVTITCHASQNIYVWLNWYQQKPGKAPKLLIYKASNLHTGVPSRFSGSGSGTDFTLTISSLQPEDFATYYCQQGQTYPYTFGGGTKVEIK
Please use Fulfilled whenever CD28 scFv signal in presence of CD28 is not below 0.1, and Not fulfilled whenever it is.

{"binder": "MDWCPRYLWHECFD [Phage-244]", "label.class": "Fulfilled"}
{"binder": "MDWCPRDRWADCFF [Phage-225]", "label.class": "Not fulfilled"}
{"binder": "VPWCQIISGLECLT [Phage-229]", "label.class": "Not fulfilled"}
{"binder": "MDWCPRDRWIDCFN [Phage-226]", "label.class": "Fulfilled"}
{"binder": "MDWCPRNMWHHCFD [Phage-248]", "label.class": "Fulfilled"}
{"binder": "MDWCPSDMWAHCYN [Phage-249]", "label.class": "Fulfilled"}
{"binder": "MDWCPRTLWHVCFN [Phage-240]", "label.class": "Fulfilled"}
{"binder": "MDWCPRALWFECFF [Phage-234]", "label.class": "Fulfilled"}
{"binder": "MDWCPPYLWSECFA [Phage-238]", "label.class": "Fulfilled"}
{"binder": "MDWCPRFMWAECFN [Phage-247]", "label.class": "Fulfilled"}
{"binder": "MDWCPRNLWHLCFA [Phage-245]", "label.class": "Fulfilled"}
{"binder": "APWCQIISGLECLT [Phage-230]", "label.class": "Not fulfilled"}
{"binder": "MDWCPSYLWHECFF [Phage-237]", "label.class": "Fulfilled"}
{"binder": "MDWCPRDRWVDCFF [Phage-223]", "label.class": "Fulfilled"}
{"binder": "MDWCPRHLWHECYS [Phage-241]", "label.class": "Fulfilled"}
{"binder": "MDWCPRYLWHVCFN [Phage-239]", "label.class": "Fulfilled"}

Provenance of the data: patent US20260242478A1
